- ASSAYED_TARGET: T1, mouse FGFR2b (mouse, UniProt P21803)
- T1 chain: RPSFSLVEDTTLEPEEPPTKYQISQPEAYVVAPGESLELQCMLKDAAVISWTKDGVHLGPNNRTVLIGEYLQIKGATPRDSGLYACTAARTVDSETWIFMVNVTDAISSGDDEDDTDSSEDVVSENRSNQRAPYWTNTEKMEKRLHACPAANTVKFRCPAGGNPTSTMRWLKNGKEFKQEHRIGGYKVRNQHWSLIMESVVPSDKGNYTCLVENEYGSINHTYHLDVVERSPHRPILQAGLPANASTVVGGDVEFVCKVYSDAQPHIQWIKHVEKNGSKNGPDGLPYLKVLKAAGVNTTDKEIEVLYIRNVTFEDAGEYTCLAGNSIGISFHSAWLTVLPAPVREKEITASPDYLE
- EXPERIMENTAL_DETAILS: BLI
Here the recorded Kd is given for each entry.
# output: bare number, implied unit nM

Past entries and their recorded results:
>>> data_value("3A3 (antibody, V domains shown) VH: QVQLQQSGAELVKPGASVKMSCKASGYTFTTYNIHWVRQTPGQGLEWIGLIYPDNGDTSYNQKFKAKATLTADKSSSTAYMHLSSLTSEDSAVYYCARGGFDYWGQGTTLTVSS VL: DIVMTQSHKFMSTSVGDRVSITCKASQDVNTDVSWYQQKPGQSPKLLIYSASYRYTGVPTRFTGSGSGTDFTFTISGVQAEDLADYYCQQHYNTPYTFGGGTRLEIK")
39.6
>>> data_value("1C10 (antibody, V domains shown) VH: QVQLQQSGAELVKPGASVKMSCKASGYTFRYYNMHWVKRTPGQGLEWIGLIYPDNGDTSYNQKFKGKATLTADTSSSTAYMQLSSLTSEDSAVYYCARGGLDYWGQGTSLTVSS VL: DIVMTQSPASLSASVGETVTITCRASGNIHNYLAWYQQKQGKSPQLLVYNAKTLADGVPSRFSGSGSGTQYSLKINSLQPEDFGSYYCQHFWSTPYTFGGGTKLEMK")
75.6
>>> data_value("3E3 (antibody, V domains shown) VH: QVQLQQPGAVLVKPGASVRMSCKASGYTFPYYNVHWVKRTPGQGLEWIGLIYPDNGDTSYNQKFTGKATLTADTSSSTAYMQLSSLTSEDSAVYYCARGGLDYWGQGTTLTVSA VL: DVQITQSPASLSASVGETVTITCGASENIYGALNWYQRKQGKSPQLLIYGATNLADGMSSRFSGSGSGRQYSLKISSLHPDDVATYYCQNVLSTPYTFGGGTKLEIK")
52.7
>>> data_value("3A12 (antibody, V domains shown) VH: EVQLQQSGAELVKPGASVKMSCKASGYTFSFYNVHWVRQTPGQGLEWIGLIYPDNGDTSYNQKFKAKATLTADKSSSAAYMQLSSLTSEDSAVYYCARGGFDYWGQGTSLTVSS VL: DIVMTQSHKFMSTSVGDRVNITCKASQDVSTAVAWYQQKPGQSPKLLIYSASYRYSGVPDRFTGSGSGTDFTFTISSVQAEDLAVYYCQQHYSTPYTFGGGTKLEMK")
10.7

Problem: Item 3D6 (antibody, V domains shown) VH: QVQLQQSGAELVKPGASVKMSCKASGYTFRYYNMHWVKRTPGQGLEWIGLIYPDNGDTSYNQKFKGKATLTADTSSSTAYMQLSSLTSEDSAVYYCARGGLDYWGQGTSLTVSS VL: DIQMTQSPASLSVSVGETVTITCRASENIYSNLAWYQQKQGKSPQLLVYNAKTLADGVPSRFSGSGSGTQYSLKINSLQPEDFGSYYCQHFWSTPFTFGSGTKLELK has what recorded Kd?
Result: 21.7

Problem: Item 3H6 (antibody, V domains shown) VH: QVQLQQSGAELVKPGASVKMSCKASGYTFSFYNIHWVRQTPGQGLEWIGLIYPDNGDTSYNQKFKAKATLTADKSSSTAYMQLSSLTSEDSAVYYCARGGFDYWGQGTTLTVSS VL: DIQMTQSPASLSASVGETVTITCRASENIYSYLAWYQQKQGKSPQLLVYNAKTLAEGVPSRFSGSGSGTQFSLKINSLQPEDFGSYYCQHHYGTPYTFGGGTKLEMK has what recorded Kd?
Result: 43.7
